Assay: In vitro human intestinal S9 hydrolysis assay (formation of compound 1-1)
Conditions: human intestinal S9, 1 uM, 37° C., up to 60 minutes
readoutType: S9 Assay (ability to form compound 1-1)

See these solved cases before continuing.
compound	experimentalResult
COc1cc2c(cc1OC)[C@H]1C[C@@H](COC(=O)CCCC(=O)O)[C@H](CC(C)C)CN1CC2	+++
COc1cc2c(cc1OC)[C@H]1C[C@@H](COC(=O)NCCC(=O)O)[C@H](CC(C)C)CN1CC2	+
COc1cc2c(cc1OC)[C@H]1C[C@@H](COC(=O)N3CCNC[C@@H]3C)[C@H](CC(C)C)CN1CC2	++
COc1cc2c(cc1OC)[C@H]1C[C@@H](COC(=O)N(C)C(CC(C)C)C(=O)O)[C@H](CC(C)C)CN1CC2 (stereo partly drawn)	++
COc1cc2c(cc1OC)[C@H]1C[C@@H](COC(=O)N(C)CC(=O)O)[C@H](CC(C)C)CN1CC2	++

Here is another compound to look at.
# compound COc1cc2c(cc1OC)[C@H]1C[C@@H](COC(=O)NC3(C(=O)O)CC3)[C@H](CC(C)C)CN1CC2 ; its S9 Assay (ability to form compound 1-1) = +

* * *

Measured pKi on VMAT2 (human platelet homogenate) (Homo sapiens (Human)) follows.
Sequence (Q05940 whole entry): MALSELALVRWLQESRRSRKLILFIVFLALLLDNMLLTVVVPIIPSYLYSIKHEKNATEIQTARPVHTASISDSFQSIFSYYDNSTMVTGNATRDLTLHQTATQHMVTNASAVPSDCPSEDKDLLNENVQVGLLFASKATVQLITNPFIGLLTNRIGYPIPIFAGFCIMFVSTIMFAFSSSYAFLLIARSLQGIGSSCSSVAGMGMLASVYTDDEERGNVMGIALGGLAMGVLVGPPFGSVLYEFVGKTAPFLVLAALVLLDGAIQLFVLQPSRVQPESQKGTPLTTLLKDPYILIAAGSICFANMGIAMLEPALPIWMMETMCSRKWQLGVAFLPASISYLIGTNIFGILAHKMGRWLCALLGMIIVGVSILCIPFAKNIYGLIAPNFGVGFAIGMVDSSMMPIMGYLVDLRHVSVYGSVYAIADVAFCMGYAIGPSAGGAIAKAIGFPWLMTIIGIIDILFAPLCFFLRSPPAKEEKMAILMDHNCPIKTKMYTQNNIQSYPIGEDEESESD
pKi: −log10 of the molar value.

Entry COc1cc2c(cc1OC)[C@H]1C[C@@H](COC(=O)N3CCO[C@@H](C)C3)[C@H](CC(C)C)CN1CC2 , tested on VMAT2 (human platelet homogenate) (Homo sapiens (Human)), has a reported pKi of > 8.00

Entry COc1cc2c(cc1OC)[C@H]1C[C@@H](COC(=O)CC(C)CC(=O)O)[C@H](CC(C)C)CN1CC2 (stereo partly shown) , tested on VMAT2 (human platelet homogenate) (Homo sapiens (Human)), has a reported pKi of 6.30 to 8.00

Entry COc1cc2c(cc1OC)[C@H]1C[C@@H](COC(=O)CC3(N)CCCCC3)[C@H](CC(C)C)CN1CC2 , tested on VMAT2 (human platelet homogenate) (Homo sapiens (Human)), has a reported pKi of > 8.00

Entry COc1cc2c(cc1OC)[C@H]1C[C@@H](COC(=O)[C@@H]3CCCC[C@H]3N)[C@H](CC(C)C)CN1CC2 , tested on VMAT2 (human platelet homogenate) (Homo sapiens (Human)), has a reported pKi of > 8.00

Entry COc1cc2c(cc1OC)[C@H]1C[C@@H](COC(=O)CC[N+](=O)[O-])[C@H](CC(C)C)CN1CC2 , tested on VMAT2 (human platelet homogenate) (Homo sapiens (Human)), has a reported pKi of > 8.00

Entry COc1cc2c(cc1OC)[C@H]1C[C@@H](COC(=O)CCn3nccc3C)[C@H](CC(C)C)CN1CC2 , tested on VMAT2 (human platelet homogenate) (Homo sapiens (Human)), has a reported pKi of 6.30 to 8.00

Entry COc1cc2c(cc1OC)C1CC(COC(=O)C3CC(C)(C)N([O])C3(C)C)C(CC(C)C)CN1CC2 (stereo not shown) , tested on VMAT2 (human platelet homogenate) (Homo sapiens (Human)), has a reported pKi of 6.30 to 8.00

* * *

Experiment: In vitro human intestinal S9 hydrolysis assay (formation of compound 1-1)
Settings: human intestinal S9, 1 uM, 37° C., up to 60 minutes
readoutType: S9 Assay (ability to form compound 1-1)

compound	readoutType	experimentalResult
COc1cc2c(cc1OC)[C@H]1C[C@@H](COC(=O)C3(OC)CCNCC3)[C@H](CC(C)C)CN1CC2 [Compound 4-22]	S9 Assay (ability to form compound 1-1)	++
COc1cc2c(cc1OC)[C@H]1C[C@@H](COC(=O)N3CCNC[C@@H]3CO)[C@H](CC(C)C)CN1CC2 [Compound 6-7]	S9 Assay (ability to form compound 1-1)	+
COc1cc2c(cc1OC)[C@H]1C[C@@H](COC(=O)N3CCCC(C(=O)O)C3)[C@H](CC(C)C)CN1CC2 (stereo partly drawn) [Compound 5-14]	S9 Assay (ability to form compound 1-1)	+
COc1cc2c(cc1OC)[C@H]1C[C@@H](COC(=O)CCC(=O)O)[C@H](CC(C)C)CN1CC2 [Compound 3-13]	S9 Assay (ability to form compound 1-1)	++
COc1cc2c(cc1OC)[C@H]1C[C@@H](COC(=O)[C@H]3CCCNC3)[C@H](CC(C)C)CN1CC2 [Compound 4-13]	S9 Assay (ability to form compound 1-1)	+++
COc1cc2c(cc1OC)[C@H]1C[C@@H](COC(=O)N3CC(C)NC(C)C3)[C@H](CC(C)C)CN1CC2 (stereo partly drawn) [Compound 6-11]	S9 Assay (ability to form compound 1-1)	+
COc1cc2c(cc1OC)[C@H]1C[C@@H](COC(=O)NCC(C)C(=O)O)[C@H](CC(C)C)CN1CC2 (stereo partly drawn) [Compound 5-57]	S9 Assay (ability to form compound 1-1)	+
COc1cc2c(cc1OC)[C@H]1C[C@@H](COC(=O)NCC[C@H](O)C(=O)O)[C@H](CC(C)C)CN1CC2 [Compound 5-56]	S9 Assay (ability to form compound 1-1)	+

# compound COc1cc2c(cc1OC)[C@H]1C[C@@H](COC(=O)NC[C@@H](CC(=O)O)CC(C)C)[C@H](CC(C)C)CN1CC2 [Compound 5-19] ; its S9 Assay (ability to form compound 1-1) = +

# compound COc1cc2c(cc1OC)[C@H]1C[C@@H](COC(=O)N3C[C@@H]4C[C@H]3CN4)[C@H](CC(C)C)CN1CC2 [Compound 6-10] ; its S9 Assay (ability to form compound 1-1) = +

# compound COc1cc2c(cc1OC)[C@H]1C[C@@H](COC(=O)CCC(C)(C)C(=O)O)[C@H](CC(C)C)CN1CC2 [Compound 3-12] ; its S9 Assay (ability to form compound 1-1) = +++

# compound COc1cc2c(cc1OC)[C@H]1C[C@@H](COC(=O)N[C@H]3[C@@H](C(=O)O)[C@H]4C=C[C@@H]3C4)[C@H](CC(C)C)CN1CC2 [Compound 5-9] ; its S9 Assay (ability to form compound 1-1) = +

# compound COc1cc2c(cc1OC)[C@H]1C[C@@H](COC(=O)N3CC4CCC(C3)N4)[C@H](CC(C)C)CN1CC2 [Compound 6-4] ; its S9 Assay (ability to form compound 1-1) = +

# compound COc1cc2c(cc1OC)[C@H]1C[C@@H](COC(=O)NC3(C(=O)O)CCCCC3)[C@H](CC(C)C)CN1CC2 [Compound 5-23] ; its S9 Assay (ability to form compound 1-1) = ++

# compound COc1cc2c(cc1OC)[C@H]1C[C@@H](COC(=O)N(C)CCCC(=O)O)[C@H](CC(C)C)CN1CC2 [Compound 5-25] ; its S9 Assay (ability to form compound 1-1) = +
